target: T1, cell-surface CD3E on primary human T cells (human, UniProt P07766 23-207); test: flow cytometry on primary human T cells, anti-human IgG Alexa Fluor 647 secondary
T1 construct: whole, on cells; On the cells CD3E stands in the CD3/T cell receptor complex; also called human CD3
T1 sequence (P07766 23-207): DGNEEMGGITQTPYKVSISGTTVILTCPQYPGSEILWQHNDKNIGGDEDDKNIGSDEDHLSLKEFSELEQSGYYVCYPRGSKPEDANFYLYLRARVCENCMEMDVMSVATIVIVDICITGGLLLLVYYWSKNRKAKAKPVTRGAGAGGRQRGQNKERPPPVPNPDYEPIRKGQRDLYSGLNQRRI
MEASURE NAME: binding result

BINDER	VALUE
CD3B144 (antibody, human IgG1, V domains shown, Humanized SP34 variant; human IgG1 constant region with L234A, L235A, F405L; human lambda constant region; also called CDB144) VH: EVQLVESGGGLVQPGGSLRLSCAASGFTFNTYAMNWVRQAPGKGLEWVARIRSKYNNYATYYAASVKGRFTISRDDSKNSLYLQMNSLKTEDTAVYYCARHGNFGNSYVSWFAYWGQGTLVTVSS VL: QSVLTQPPSVSAAPGQKVTISCRSSTGAVTTSNYANWVQQLPGTAPKGLIGGTNKRAPGIPDRFSGSKSGTSATLGITGLQTGDEADYYCALWYSNLWVFGGGTKLTVL	no binding
CD3B150 (antibody, human IgG1, V domains shown, Humanized SP34 variant; human IgG1 constant region with L234A, L235A, F405L; human lambda constant region; also called CDB150) VH: EVQLLESGGGLVQPGGSLRLSCAASGFTFNTYAMNWVRQAPGKGLEWVARIRSKYNNYATYYADSVKGRFTISRDNSKNTLYLQMNSLRAEDTAVYYCAKHGNFGNSYVSWFAYWGQGTLVTVSS VL: QTVVTQEPSLTVSPGGTVTLTCRSSTGAVTTSNYANWVQQKPGQAPRGLIGGTNKRAPGTPARFSGSLLGGKAALTLSGVQPEDEAEYYCALWYSNLWVFGGGTKLTVL	binds
CD3B152 (antibody, human IgG1, V domains shown, Humanized SP34 variant; human IgG1 constant region with L234A, L235A, F405L; human lambda constant region; also called CDB152) VH: EVQLLESGGGLVQPGGSLRLSCAASGFTFNTYAMNWVRQAPGKGLEWVARIRSKYNNYATYYADSVKGRFTISRDNSKNTLYLQMNSLRAEDTAVYYCVKHGNFGNSYVSWFAYWGQGTLVTVSS VL: QSVLTQPPSVSAAPGQKVTISCRSSTGAVTTSNYANWVQQLPGTAPKGLIGGTNKRAPGIPDRFSGSKSGTSATLGITGLQTGDEADYYCALWYSNLWVFGGGTKLTVL	no binding
CD3B151 (antibody, human IgG1, V domains shown, Humanized SP34 variant; human IgG1 constant region with L234A, L235A, F405L; human lambda constant region; also called CDB151) VH: EVQLLESGGGLVQPGGSLRLSCAASGFTFNTYAMNWVRQAPGKGLEWVARIRSKYNNYATYYADSVKGRFTISRDNSKNTLYLQMNSLRAEDTAVYYCVKHGNFGNSYVSWFAYWGQGTLVTVSS VL: QAVVTQEPSLTVSPGGTVTLTCRSSTGAVTTSNYANWVQQKPGQAPRGLIGGTNKRAPGTPARFSGSLLGGKAALTLSGAQPEDEAEYYCALWYSNLWVFGGGTKLTVL	binds

For this binder ( CD3B154 (antibody, human IgG1, V domains shown, Humanized SP34 variant; human IgG1 constant region with L234A, L235A, F405L; human lambda constant region; also called CDB154) VH: EVQLLESGGGLVQPGGSLRLSCAASGFTFNTYAMNWVRQAPGKGLEWVARIRSKYNNYATYYADSVKGRFTISRDNSKNTLYLQMNSLRAEDTAVYYCVKHGNFGNSYVSWFAYWGQGTLVTVSS VL: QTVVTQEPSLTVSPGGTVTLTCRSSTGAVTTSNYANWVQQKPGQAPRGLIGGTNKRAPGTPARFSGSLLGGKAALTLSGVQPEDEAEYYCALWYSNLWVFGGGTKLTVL ), measured binding result is binds
